Cited source for all entries: patent US20100278834A1

target: hemagglutinin of A/Indonesia/5/05 (H5N1, clade 2) (influenza A virus A/Indonesia/5/05 (H5N1)); assay: cell-based or functional assay
quantity kind: IC50, neutralisation of retroviral pseudotypes (µg/mL)

binder	reported result
FLD84 (antibody, V domains shown) VH: QVQLQESGPGLVKPSETLSLICAVSGASISSSYWSWIRQPPGKGLEWIGYIYYSGVTKYNPSLKSRVTLSVDTSKNHFSLKLSYVTAADTAVYYCARNLPDIAVVTAVQDATPVWFDPWGPGTLVSVSS VL: DIQLTQSPSSLSASVGDRVTITCRASQGIITYLNWYQQKPGKAPKLLIYATYSLQNGVPSRFSGSGSGTDFTLTISSLQPEDFATYYCQQSYSSLMFTFGQGTKLDIK	0.03
FLD129 (antibody, V domains shown) VH: EVQLVESGGGLVQPGRSLRLSCAASGFTFSDFWMSWVRQAPGKGLEWVANIDQDGNERFYADSVKGRFTISRDNAKNSLYLQMTSLRADDTAVYYCARDGREGYFYGSGSFYNLKGLNWGQGTLLTVSS VL: QSVLTQPPSVSAAPGQRVTISCSGTSSNIGKNYVSWYQQLPGAAPKLLIYDNDKRPSGIPDRFSGSKSGTSATLGITGLQTGDEADYYCGTWDSSLSVGMFGGGTRLTVL	0.678
FLA3.14 (antibody, V domains shown) VH: EVQLVQSGAEVKKPGESLKISCQASGYSFTSRWIGWVRQMPGKGLEWVGFIYPSDSDVRYSPSFRGQVTISADKSISTAYLQWSSLKASDTAMYFCARLGGNKDYGDYLWYFDLWGRGALVTVSS VL: EIVMTQSPDTLSVSPGERATLSCRASQSVNRRLAWYQQKPGQAPRLLIHDASTRATGIPARFSGSGSGTEFTLTISSLQSEDFAVYYCQQYDNWLSFGQGTRLEIK	0.012
